# IC50 listing for each entry below
tgt: GST-JAK2(808-1132) (Homo sapiens)
Construct: GST-JAK2(808-1132); purchased Invitrogen (Carlsbad, USA) #4288
Sequence (O60674 808-1132): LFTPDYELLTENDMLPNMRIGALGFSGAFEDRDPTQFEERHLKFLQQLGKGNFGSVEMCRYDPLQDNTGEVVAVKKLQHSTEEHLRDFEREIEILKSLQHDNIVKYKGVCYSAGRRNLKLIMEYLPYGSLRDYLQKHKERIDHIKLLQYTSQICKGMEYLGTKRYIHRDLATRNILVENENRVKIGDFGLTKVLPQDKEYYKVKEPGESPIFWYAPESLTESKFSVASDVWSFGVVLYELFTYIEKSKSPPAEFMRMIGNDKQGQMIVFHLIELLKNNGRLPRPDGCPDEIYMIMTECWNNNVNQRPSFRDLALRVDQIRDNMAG
measurement-description: JAK2 kinase assay (Caliper mobility shift, LabChip 3000)
Assay type: biochemical

- molecule: "CN1CCN(c2cc(Nc3ncc4ccn(-c5cc(F)c(C(=O)N6CCOCC6)c(F)c5)c4n3)ccn2)CC1"
  unit-text: "nM"
  value-comparator: "<"
  IC50: 3
- molecule: "Cc1cc(Nc2ncc3ccn(-c4cc(F)c(CN5CCOCC5)c(F)c4)c3n2)cnc1N1CCNC(C)(C)C1=O"
  unit-text: "nM"
  value-comparator: "≤"
  IC50: 3
- molecule: "CS(=O)(=O)c1ccc(-n2ccc3cnc(Nc4ccc(F)cc4)nc32)cc1"
  unit-text: "nM"
  value-comparator: "="
  IC50: 20
- molecule: "CC(C)Oc1ccc(Nc2ncc3ccn(-c4ccc(CCN5CCOCC5)cc4)c3n2)cc1"
  unit-text: "nM"
  value-comparator: "="
  IC50: 16
- molecule: "CC(C)Oc1ccc(Nc2ncc3ccn(-c4ccc(C5(C(=O)N6CCN(C)CC6)CC5)cc4)c3n2)cc1"
  unit-text: "nM"
  value-comparator: "<"
  IC50: 3
- molecule: "Cc1ccc(Nc2ncc3ccn(-c4cc(F)c(CN5CCOCC5(C)C)c(F)c4)c3n2)cc1C"
  unit-text: "nM"
  value-comparator: "="
  IC50: 780
- molecule: "O=C(c1ccc(Nc2ncc3ccn(-c4ccc(CN5CCOCC5)c(F)c4)c3n2)cc1)N1CCOCC1"
  unit-text: "nM"
  value-comparator: "="
  IC50: 6.1
- molecule: "CS(=O)(=O)c1ccc(-n2ccc3cnc(Nc4ccc(C(=O)NCCO)cc4)nc32)cc1"
  unit-text: "nM"
  value-comparator: "<"
  IC50: 3
- molecule: "CN1CCN(c2ccc(Nc3ncc4ccn(-c5ccc(S(=O)(=O)NC(C)(C)C)cc5)c4n3)cc2)CC1"
  unit-text: "nM"
  value-comparator: "="
  IC50: 6.2
- molecule: "Cc1cc(Nc2ncc3ccn(-c4ccc(C(=O)N5CCOCC5)c(C)c4)c3n2)ccc1F"
  unit-text: "nM"
  value-comparator: "<"
  IC50: 3
- molecule: "Cc1ccc(Nc2ncc3cc(C)n(-c4ccc(CC(=O)N5CCN(C)CC5)cc4)c3n2)cc1C"
  unit-text: "nM"
  value-comparator: "="
  IC50: 870
- molecule: "Fc1cc(-n2ccc3cnc(Nc4ccc([C@H]5COCCN5CCOCc5ccccc5)cc4)nc32)cc(F)c1CN1CCOCC1"
  unit-text: "nM"
  value-comparator: "="
  IC50: 57
- molecule: "CC(C)(C)OC(=O)N1CCN(Cc2ccc(Nc3ncc4ccn(-c5ccc(S(C)(=O)=O)cc5)c4n3)cc2)CC1"
  unit-text: "nM"
  value-comparator: "="
  IC50: 6.1
- molecule: "COc1ccc(Nc2ncc3ccn(-c4ccc(S(C)(=O)=O)cc4)c3n2)cc1O"
  unit-text: "nM"
  value-comparator: "="
  IC50: 3.5
- molecule: "Cc1ccc(Nc2ncc3ccn(-c4cc(F)c(C(=O)N5CCOCC5)c(F)c4)c3n2)cc1Cl"
  unit-text: "nM"
  value-comparator: "="
  IC50: 12.5
- molecule: "Cc1ccc(Nc2ncc3ccn(-c4cc(F)c(CN5CCOCC5)c(F)c4)c3n2)cc1"
  unit-text: "nM"
  value-comparator: "="
  IC50: 25
- molecule: "CN1CCN(CCOc2cccc(Nc3ncc4ccn(-c5ccc(S(C)(=O)=O)cc5)c4n3)c2)CC1"
  unit-text: "nM"
  value-comparator: "="
  IC50: 5.4
- molecule: "Cc1ccc(Nc2ncc3ccn(-c4ccc(C(=O)N5CCOCC5)c(F)c4)c3n2)cc1"
  unit-text: "nM"
  value-comparator: "="
  IC50: 26
- molecule: "Cc1cc(Nc2ncc3ccn(-c4cc(F)c(CN5CCOCC5)c(F)c4)c3n2)ccc1CN1C[C@@H](C)N[C@@H](C)C1"
  unit-text: "nM"
  value-comparator: "≤"
  IC50: 3
- molecule: "O=C(NCCN1CCOCC1)c1ccc(-n2ccc3cnc(Nc4ccc(F)cc4)nc32)cc1"
  unit-text: "nM"
  value-comparator: "="
  IC50: 180
- molecule: "COc1ccc(Nc2ncc3ccn(-c4ccc(S(C)(=O)=O)cc4)c3n2)cc1OC"
  unit-text: "nM"
  value-comparator: "<"
  IC50: 3
- molecule: "OC1CN(Cc2ccc(Nc3ncc4ccn(-c5cc(F)c(CN6CCOCC6)c(F)c5)c4n3)cc2)C1"
  unit-text: "nM"
  value-comparator: "="
  IC50: 3.5
- molecule: "CN1CCN(c2ccc(Nc3ncc4ccn(-c5ccc(S(N)(=O)=O)cc5)c4n3)cc2)CC1"
  unit-text: "nM"
  value-comparator: "="
  IC50: 16
- molecule: "Cc1ccc(Nc2ncc3ccn(-c4ccc(C(=O)N5CCOCC5)c(F)c4)c3n2)cc1CN1CCOC2(COC2)C1"
  unit-text: "nM"
  value-comparator: "="
  IC50: 7.4
- molecule: "Cc1ccc(Nc2ncc3ccn(-c4cc(F)c(CN5CCOCC5)c(F)c4)c3n2)cc1CN1CCN(C)C(=O)C1"
  unit-text: "nM"
  value-comparator: "≤"
  IC50: 3
- molecule: "Cc1ccc(Nc2ncc3ccn(-c4ccc(CN5CCOCC5)c(F)c4)c3n2)cc1Cl"
  unit-text: "nM"
  value-comparator: "="
  IC50: 75
- molecule: "COc1cc(Nc2ncc3ccn(-c4ccc(C(=O)N5CCOCC5)c(F)c4)c3n2)ccc1Cl"
  unit-text: "nM"
  value-comparator: "="
  IC50: 14.5
- molecule: "Cc1ccc(Nc2ncc3ccn(-c4cc(F)c(CN5CCOCC5)c(F)c4)c3n2)cc1CN1CCC(N(C)C)C1 (racemic)"
  unit-text: "nM"
  value-comparator: "≤"
  IC50: 3
- molecule: "C[C@@H]1CN(Cc2ccc(Nc3ncc4ccn(-c5cc(F)c(CN6CCOCC6)c(F)c5)c4n3)cc2)C[C@H](C)N1"
  unit-text: "nM"
  value-comparator: "<"
  IC50: 3
- molecule: "Cc1cc(-n2ccc3cnc(Nc4ccc(OC(C)C)cc4)nc32)ccc1CN1CCOCC1"
  unit-text: "nM"
  value-comparator: "="
  IC50: 14.5
